test system: c-Src; experiment: phosphorylation enrichment, bacterial display (enrichment ratio); higher = better substrate or ligand; peptides without Tyr show the background;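 note: 11-residue human phosphosite peptides and single-mutation variants displayed on the E. coli surface, counted by deep sequencing, each peptide's frequency after selection divided by its frequency in the unselected input library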;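 note: frequency after pTyr selection over input frequency; kinase dosed for 20-30% of maximal phosphorylation in three min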
Entries annotated with measured phosphorylation enrichment
Number only, please.

Worked set:
{"primary sequence": "GSERDYTYDEL [EIF2S2_Y174_E177D]", "phosphorylation enrichment": 0.766}
{"primary sequence": "LHVGFYESDVM [A2M_Y708_R704H]", "phosphorylation enrichment": 0.676}
{"primary sequence": "LPKVSYMKAID [GLRA1_Y307_V308M]", "phosphorylation enrichment": 0.574}

SRDPFYEMLAA [CYTH1_Y382] yielded phosphorylation enrichment of 2.96

Lookup result for REENGYNTFAS [FGF10_Y161_I156R_YF] ; measured phosphorylation enrichment: 0.827

Memo: LIGRRCDDPEV [HSPA9_Y128_Y128C] , reported phosphorylation enrichment: 0.722

Item: QRASDYYSQQM [GBP6_Y333_A331S] | phosphorylation enrichment: 0.58

// phosphorylation enrichment lookup, sequence = SNMPSYSGHFT [GRIN2A_Y1224_T1223S] , result: 0.463

Just so you know, measured phosphorylation enrichment for SGIFQYIIAKF [FOXL2_Y83_YF] came out at 0.561

Entry DPGVSYHTREE [PDHA1_Y301_R302H] — recorded phosphorylation enrichment = 0.41

Query LESETYRRLLD [KRT12_Y429_I426S] yields phosphorylation enrichment of 0.517

Reported phosphorylation enrichment ( AELVQYFMEHH [PTPN11_Y80_YF] ) = 0.437

Lab book: phosphorylation enrichment of CTTIHYDYMCN [TP53_Y234_N235D] noted as 0.675
